- Procedure Summary: Half life in po dosed human administered as qd
- Format: ADME, organism-based
- Stated Conditions: in vivo
Property: half-life (h)
Give just the numeric value; h need not be written.

Q: # input compound: CC1=C(C#N)[C@@H](c2ccc(C#N)cc2S(C)(=O)=O)N(C)C(=O)N1c1cccc(C(F)(F)F)c1 ; wanted: its half-life
Result: 120

* * *

- Target System: Neutrophil elastase (Homo sapiens)
- Sequence (P08246 whole entry): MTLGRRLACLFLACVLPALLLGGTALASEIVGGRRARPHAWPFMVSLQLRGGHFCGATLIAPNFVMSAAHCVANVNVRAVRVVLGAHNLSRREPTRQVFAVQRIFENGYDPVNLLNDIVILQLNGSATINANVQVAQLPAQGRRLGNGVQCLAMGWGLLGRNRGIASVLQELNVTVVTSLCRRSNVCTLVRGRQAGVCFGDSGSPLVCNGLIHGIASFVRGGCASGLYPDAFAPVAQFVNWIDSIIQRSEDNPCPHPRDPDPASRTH
Property: IC50 (nM)
Just the number in nM, nothing appended.

Q: What IC50 value was documented for this compound, CCc1cc(OC)cc2nc(-c3cccnc3N3CC[C@H](N(C)C)C3)oc(=O)c12 ?
Result: 7
